- procedure.summary: Half life in Sprague-Dawley rat at 10 mg/kg,po measured upto 24 hrs by LC-MS/MS analysis
- Assay type: ADME, organism-based
- measurement.conditions: in vivo
measured.quantity: half-life (h)
Numeric answer only, unit h assumed.

# return recorded half-life for input COc1cc(Cc2nnc3n2N=C(c2ccc(C)cc2)CS3)cc(OC)c1OC
4.8

----------
- procedure.summary: MRT (0-t) in Sprague-Dawley rat at 2 mg/kg,iv measured upto 24 hrs by LC-MS/MS analysis
- Assay type: ADME, organism-based
- measurement.conditions: in vivo
measured.quantity: MRT last at 24 h (h)
// note: answer is a bare numeric in h

Fill in MRT last at 24 h for record COc1cc(Cc2nnc3n2N=C(c2ccc(C)cc2)CS3)cc(OC)c1OC
1.2

----------
- procedure.summary: Cmax in Sprague-Dawley rat at 2 mg/kg,iv measured upto 24 hrs by LC-MS/MS analysis
- Assay type: ADME, organism-based
- Set-up: time < 24 hrs, dose 2 mg/kg, route iv
- measurement.conditions: in vivo
measured.quantity: Cmax (ng/mL)
Write the value in ng/mL as a bare number.

Retrieve Cmax measured for COc1cc(Cc2nnc3n2N=C(c2ccc(C)cc2)CS3)cc(OC)c1OC and print it.
670

----------
- procedure.summary: Cmax in Sprague-Dawley rat at 10 mg/kg,po measured upto 24 hrs by LC-MS/MS analysis
- Type: ADME, organism-based
- Design: time < 24 hrs, dose 10 mg/kg, route po
- measurement.conditions: in vivo
measured.quantity: Cmax (ng/mL)
Your answer is read as ng/mL, so omit the unit and give the number.

Supply Cmax value. Item: COc1cc(Cc2nnc3n2N=C(c2ccc(C)cc2)CS3)cc(OC)c1OC
28.4

----------
- assay.system: Tubulin
- procedure.summary: Inhibition of tubulin polymerization (unknown origin) measured for 20 mins in presence of GTP by spectrophotometry analysis
measured.quantity: IC50 (µM)
Respond with the bare value in µM.

State recorded IC50 with Tubulin, entry COc1cc(Cc2nnc3n2N=C(c2ccc(C)cc2)CS3)cc(OC)c1OC , no comment.
11.2

----------
Listing: IC50 of selected compounds
- Tested on: HT-29
- procedure.summary: Antiproliferative activity against human HT-29 cells assessed as cell growth inhibition incubated for 48 hrs by MTT assay
- Assay type: functional, cell-based
- measurement.conditions: HT-29, 48 h
Give the number; µM is assumed, so skip it.

Consider the worked cases shown below.
{"compound.smiles": "COc1ccc(C2=Nn3c(Cc4cc(OC)c(OC)c(OC)c4)nnc3SC2)cc1O", "IC50, µM": 9.69}
{"compound.smiles": "COc1ccc(/C=C\\c2cc(OC)c(OC)c(OC)c2)cc1O", "IC50, µM": 1.18}
{"compound.smiles": "COc1cc(Cc2nnc3n2N=C(c2ccc(Br)cc2)CS3)cc(OC)c1OC", "IC50, µM": 43.6}
{"compound.smiles": "COc1ccc(C2=Nn3c(COc4cc(OC)c(OC)c(OC)c4)nnc3SC2)cc1OC(C)=O", "IC50, µM": 26.2}
{"compound.smiles": "COc1cc(Cc2nnc3n2N=C(c2ccc(N(C)C)cc2)CS3)cc(OC)c1OC", "IC50, µM": 35.2}
{"compound.smiles": "COc1cc(Cc2nnc3n2N=C(c2ccc(Cl)cc2)CS3)cc(OC)c1OC", "IC50, µM": 1.02}

Provide IC50, tested on HT-29, for COc1ccc(C2=Nn3c(Cc4cc(OC)c(OC)c(OC)c4)nnc3SC2)cc1[N+](=O)[O-] .
49.2

Would you please give the reported IC50 of COc1ccc(C2=Nn3c(COc4cc(OC)c(OC)c(OC)c4)nnc3SC2)cc1O with HT-29?
36.4

// fetch IC50 for COc1cc(OCc2nnc3n2N=C(c2ccc(Cl)c(Cl)c2)CS3)cc(OC)c1OC ; system: HT-29
48.1

Please look at COc1cc(OCc2nnc3n2N=C(c2ccc(N(C)C)cc2)CS3)cc(OC)c1OC and tell me its recorded IC50 on HT-29.
0.41

Look up and report IC50, with HT-29 as system, for COc1cc(Cc2nnc3n2N=C(c2ccccc2F)CS3)cc(OC)c1OC
44.6

For HT-29, give IC50 of the listed compound: COc1cccc(C2=Nn3c(Cc4cc(OC)c(OC)c(OC)c4)nnc3SC2)c1
32
